For each entry below, report its Turnover value.
Tested on: HPPD polypeptides
Test: coupled HPPD activity assay: turnover and residual turnover in crude extracts
Type: biochemical, Pseudomonas fluorescens
Settings: absence of Cmpd. 1; high substrate concentration; kinetic changes in absorbance (OD) at 320 nm, 30 min
No unit in the answer, only the number.

Check the records and state Turnover for 54 (protein, mutant HPPD polypeptide) MADLYENPMGLMGFEFIEFASPTPGTLEPIFEIMGFTKVATHRSKNVHLYRQGEINLILNNEPNSIASYFAAEHGPSVCGMAFRVKDSQKAYNRALELGAQPIHIDTGPMELNLPAIKGIGGAPLYLIDRFGEGSSIYDIDFVYLEGVERNPVGAGLKVIDHLTHNVYRGRMVYWANFYEKLFNFREARYFDIKGEYTGLTSKAMSAPDGMIRIPLNEESSKGAGQIEEFLMQFNGEGIQHVAFLTDDLVKTWDALKKIGMRFMTAPADNYYEMLEGRLPDHGEPVDQLQARGILLDGSSVEGDKRLLLQIFSETLMGPVFFEFIQRKGDDGFGPDSFKVLFEQKERDQVRRGVLTAD
0.089

Annotate the molecule 14 (protein, mutant HPPD polypeptide) MADLYENPMGLMGFEFIEFASPTPGTLEPIFEIMGFTKVATHRSKNVHLYRQGEINLILNNEPNSIASYFAAEHGPSVCGMAFRVKDSQKAYNRALELGAQPIHIDTGPMELNLPAIKGIGGAPLYLIDRFGEGSSIYDIDFVYLEGVERNPVGAGLKVIDHLTHNVYRGRMVYWANFYEKLFNFREARYFDIKGEYTGLTSKAMSAPDGMIRIPLNEESSKGAGQIEEFLMQFNGEGIQHVAFLTDDLVKTWDALKKIGMRFMTAPPDNYYEMLEGRLPDHGEPVDQLQARGILLDGSSVEGDKRLLLQIFSETLMGPVFFEFIQRKGDDGFGPDSFKVLFESVERDQVRRGVLTAD with its measured Turnover.
0.188
